Source: patent US20240109881A1

# PROTOCOL_TEXT: Pharmacokinetic studies in mice (plasma PK, IV and PO)
# Type: in vivo
# ASSAY_CONDITIONS: mouse; female C57B16 mice, PO 3.0 mg/kg, plasma
Structures can show the parent of a compound that is named as a salt.
Would you mind telling me the reported Tmax of each entry?
Numbers only, in h.

Solved entries:
COMPOUND	SCALE_UNIT	Tmax
C[C@H](C#N)Nc1cc(-n2ncc3cc(C#N)cnc32)ncc1-n1cc([C@H]2CC[C@H](CCN3CCN(c4ccc(C5CCC(=O)NC5=O)cc4)CC3)CC2)nn1 (stereo partly drawn) [P-139, formic acid salt]	h	2
C[C@H](C#N)Nc1cc(-n2ncc3cc(C#N)cnc32)ncc1-n1cc(C2CCC(CCN3CCN(c4ccc(C5CCC(=O)NC5=O)cc4)[C@H](C)C3)CC2)nn1 (stereo partly drawn)	h	2

The record that follows has no Tmax shown yet.
Query: Looking for the measured Tmax of C[C@H](C#N)Nc1cc(-n2ncc3cc(C#N)c(N)nc32)ncc1-n1cc([C@H]2CC[C@H](CCN3CCN(c4ccc(C5CCC(=O)NC5=O)cc4)CC3)CC2)nn1 (stereo partly drawn) [P-160, TFA] , can you help?
Response: 2

----------
# SYSTEM: IRAK4 (Homo sapiens)
# Construct: endogenous in cells
# Sequence (Q9NWZ3 whole entry): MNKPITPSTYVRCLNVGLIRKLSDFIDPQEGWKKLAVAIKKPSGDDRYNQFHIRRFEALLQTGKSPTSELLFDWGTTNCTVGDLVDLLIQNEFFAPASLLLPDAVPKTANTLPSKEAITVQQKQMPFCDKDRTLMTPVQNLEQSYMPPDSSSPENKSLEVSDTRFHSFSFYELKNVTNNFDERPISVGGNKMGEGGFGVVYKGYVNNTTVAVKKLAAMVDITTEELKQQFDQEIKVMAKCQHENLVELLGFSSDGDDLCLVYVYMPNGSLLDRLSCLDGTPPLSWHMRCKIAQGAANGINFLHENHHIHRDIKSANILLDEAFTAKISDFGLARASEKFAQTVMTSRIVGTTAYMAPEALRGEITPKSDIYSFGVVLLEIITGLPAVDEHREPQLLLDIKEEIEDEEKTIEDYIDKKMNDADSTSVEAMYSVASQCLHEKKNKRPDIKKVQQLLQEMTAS
# PROTOCOL_TEXT: ALE THP1 HTRF (Advanced Lipoxidation End Product THP1 Homogeneous Time Resolved Fluorescence)
# ASSAY_CONDITIONS: THP1 cells
# Description: For Homogenous Time Resolved Fluorescence (HTRF) assays, a Cisbio HTRF kit was used, which included: Lysis Buffer #1 4×, Blocking Reagent #3 100×, 20× Antibody 1 (Anti-IRAK4 d2), 20× Antibody 2 (Anti-IRAK4 k), and Detection Buffer. 4× Lysis Buffer was stored at 4° C. […] Cells were lysed at room temperature for 45 min with shaking. […] The samples were analyzed by a plate reader (Envision, PerkinElmer) using the Desnor 384 HTRF program.
MEASURE_NAME: EC50 (nM)
Answers are plain numbers, in nM.

Solved entries:
MOLECULE	SCALE_UNIT	EC50
CS(=O)(=O)N1CCC(Nc2cc(-n3ncc4cc(C#N)cnc43)ncc2C(=O)N[C@H]2CC[C@H](CCN3CCN(c4ccc(C5CCC(=O)NC5=O)cc4)CC3)CC2)CC1 (stereo partly drawn)	nM	13
C[C@H](C#N)Nc1cc(-n2ncc3cc(C#N)cnc32)ncc1-n1cc(C2CCC(CCN3CCN(c4ccc(C5CCC(=O)NC5=O)cc4)[C@@H](C)C3)CC2)nn1 (stereo in doubt)	nM	1
N#Cc1cnc2c(cnn2-c2cc(NCCF)c(C(=O)NC3CCC(CCN4CCN(c5ccc(C6CCC(=O)NC6=O)cc5)CC4)CC3)cn2)c1 (stereo not drawn)	nM	22
N#Cc1cnn2c(-c3cc(NC4CC4)c(C(=O)N[C@H]4CC[C@H](CCN5CCN(c6ccc(C7CCC(=O)NC7=O)cc6)CC5)CC4)cn3)ccc2c1 (stereo partly drawn)	nM	8
N#Cc1cnc2c(cnn2-c2cc(N[C@H]3CCC[C@H]3O)c(C(=O)NC3CCC(CCN4CCN(c5ccc(C6CCC(=O)NC6=O)cc5)CC4)CC3)cn2)c1 (stereo partly drawn)	nM	6

Give EC50 for each of the items listed below.
1. C[C@H](C#N)Nc1cc(-n2ncc3cc(C#N)c(N)nc32)ncc1C(=O)N[C@H]1CC[C@H](CCN2CCN(c3ccc(C4CCC(=O)NC4=O)cc3)[C@@H](C)C2)CC1 (stereo partly drawn)
2. CC(C)Nc1cc(-n2ncc3cc(C#N)cnc32)ncc1C(=O)NC1CCC(CCN2CCN(c3ccc(C4CCC(=O)NC4=O)cc3)CC2)CC1 (stereo not drawn)
3. N#Cc1cnc2c(cnn2-c2cc(NC3CCCC3)c(-c3cn([C@H]4CC[C@H](C(=O)N5CCC(C(=O)Nc6ccc(N7CCC(=O)NC7=O)cc6)CC5)CC4)nn3)cn2)c1
4. CCCNc1cc(-n2ncc3cc(C#N)cnc32)ncc1C(=O)N[C@H]1CC[C@H](CCN2CCN(c3ccc(C4CCC(=O)NC4=O)cc3)CC2)CC1 (stereo partly drawn)
5. COc1cc(N2CCN(CC[C@H]3CC[C@H](NC(=O)c4cnc(-n5ncc6cc(C#N)c(N)nc65)cc4N[C@H](C)C#N)CC3)C[C@H]2C)ccc1C1CCC(=O)NC1=O (stereo partly drawn)
6. N#Cc1cnc2c(cnn2-c2cc(NC3CCCC3)c(C(=O)N[C@H]3CC[C@H](CN4CCC(CCc5ccc(C6CCC(=O)NC6=O)cc5)CC4)CC3)cn2)c1 (stereo partly drawn)

Response:
1: 12; 2: 11; 3: 28; 4: 14; 5: 6; 6: 312

Query: Looking for the measured EC50 of C[C@H](C#N)Nc1cc(-n2ncc3cc(C#N)c(N)nc32)ncc1C(=O)N[C@H]1CC[C@H](CCN2CCC(c3ccc(C4CCC(=O)NC4=O)cc3)CC2)CC1 (stereo partly drawn) , can you help?
Response: 1
